- Tgt: T1, FcγRIIB (form not stated) (UniProt P31994 43-217, limits assumed)
- T1 construct: also called FcγRIIB (ELISA)
- T1 sequence (looked up): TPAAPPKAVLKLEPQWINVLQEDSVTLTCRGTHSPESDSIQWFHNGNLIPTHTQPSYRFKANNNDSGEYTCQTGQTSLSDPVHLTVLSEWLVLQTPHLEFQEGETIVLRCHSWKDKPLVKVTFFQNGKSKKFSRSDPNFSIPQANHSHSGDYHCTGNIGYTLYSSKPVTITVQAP
- Experiment: ELISA
Metric name: fold increase vs WT (x)
Number only, in x; omit the unit.

ch4-4-20 V397M, T411A, S415N (antibody) heavy: ASTKGPSVFPLAPSSKSTSGGTAALGCLVKDYFPEPVTVSWNSGALTSGVHTFPAVLQSSGLYSLSSVVTVPSSSLGTQTYICNVNHKPSNTKVDKKVEPKSCDKTHTCPPCPAPELLGGPSVFLFPPKPKDTLMISRTPEVTCVVVDVSHEDPEVKFNWYVDGVEVHNAKTKPREEQYNSTYRVVSVLTVLHQDWLNGKEYKCKVSNKALPAPIEKTISKAKGQPREPQVYTLPPSRDELTKNQVSLTCLVKGFYPSDIAVEWESNGQPENNYKTTPPMLDSDGSFFLYSKLAVDKNRWQQGNVFSCSVMHEALHNHYTQKSLSLSPGK	5

Prompt line: Consider the binder ch4-4-20 P247L, W313R, E388G (antibody) heavy: ASTKGPSVFPLAPSSKSTSGGTAALGCLVKDYFPEPVTVSWNSGALTSGVHTFPAVLQSSGLYSLSSVVTVPSSSLGTQTYICNVNHKPSNTKVDKKVEPKSCDKTHTCPPCPAPELLGGPSVFLFPPKLKDTLMISRTPEVTCVVVDVSHEDPEVKFNWYVDGVEVHNAKTKPREEQYNSTYRVVSVLTVLHQDRLNGKEYKCKVSNKALPAPIEKTISKAKGQPREPQVYTLPPSRDELTKNQVSLTCLVKGFYPSDIAVEWESNGQPGNNYKTTPPVLDSDGSFFLYSKLTVDKSRWQQGNVFSCSVMHEALHNHYTQKSLSLSPGK and give its measured fold increase vs WT.
Response line: 1
